- System: DLD-1 (human colon adenocarcinoma)
- assay: cells
- stated_conditions: Homo sapiens, DLD-1, read-out: IC50 (50% Inhibition Concentration)
quantity_measured: IC50 (nM)
Give just the numeric value; nM need not be written.

Query: Look at this compound and give its reported IC50. CO[C@@]12[C@H](COC(N)=O)C3=C(C(=O)C(C)=C(N)C3=O)N1C[C@@H]1N[C@@H]12 [Mitomycin, reference compound]
Result: 330

###

- Tested on: DLD-1 (human colon adenocarcinoma)
- assay: cells
- stated_conditions: read-out: LC50 (50% Lethal Concentration); DLD-1, semi-quantitative, nonlinear regression
quantity_measured: CC50 (µM)
Give just the numeric value; µM need not be written.

Query: Look at this compound and give its reported CC50. COC1C(O)C(CO)OC(OC2C(O)COC(OC3C(C)OC(OC4C(OC5CCC6(C)C7CCC89C(=O)OC(C)(CCCC(C)C)C8C(OC(C)=O)CC9(C)C7=CCC6C5(C)C)OCC(OS(=O)(=O)[O-])C4O)C(OC4OCC(O)C(O)C4O)C3O)C2O)C1O.[Na+] (stereo not shown) [Frondoside A]
Result: 41

###

- Tested on: PC-3 (human prostate adenocarcinoma)
- assay: cells
- stated_conditions: read-out: LC50 (50% Lethal Concentration); PC-3, semi-quantitative, nonlinear regression
quantity_measured: CC50
Write your answer as a measured quantity: the number, then the unit.

Query: Look at this compound and give its reported CC50. COC1C(O)C(CO)OC(OC2C(O)COC(OC3C(C)OC(OC4C(OC5CCC6(C)C7CCC89C(=O)OC(C)(CCCC(C)C)C8C(OC(C)=O)CC9(C)C7=CCC6C5(C)C)OCC(OS(=O)(=O)[O-])C4O)C(OC4OCC(O)C(O)C4O)C3O)C2O)C1O.[Na+] (stereo not shown) [Frondoside A]
Result: 2 µM
